Measured melting point accompanies every entry in the list below.

Worked examples follow.
• CN(C)CC(O)COc1ccc(Nc2ccccc2)cc1 (stereo not shown) [Compound 3] = 88 to 90.1 °C
• O=[N+]([O-])c1ccccc1Nc1ccc(OCC(O)CN2CCOCC2)cc1 (stereo not shown) [Compound 2] = 95.6 to 97.5 °C
• CN(C)CC(O)COc1ccc(Nc2ccc(C(F)(F)F)cc2)cc1 (stereo not shown) [Compound 6] = 76.3 to 79.1 °C

Now consider a different compound.
For CN(C)CC(O)COc1ccc(Nc2ccccc2[N+](=O)[O-])cc1 (stereo not shown) [Compound 7] , what is its reported melting point?
76.1 to 77.3 °C

The values you see were collected from paper PMC8002023.
